# composite z-score values compiled below
tgt: Calmodulin-1 (Homo sapiens)
method: small molecules binding Ca-loaded calmodulin-1 – biochemical, small-molecule microarray, Cy5-labelled CALM1, plus calcium, artefact control for SMM control-protein annotation, profiling panel (AID 1112);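 further: score merges spot fluorescence with signal to noise from triplicate slides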
reported_conditions: Cy5-CALM1 binding fluorescence, higher = more signal
Answer with the value's number alone.

Reference set, count: 8
>  <molecule>
C=C(/C(=C/C[C@@H](OC(=O)c1ccncc1)c1ccccc1OCCO)c1cnc2ccccc2c1)C(C)C

>  <composite z-score>
-0.531

$$$$
>  <molecule>
COC(=O)[C@H]1N=C(c2ccc(OCCCO)cc2)O[C@H]1c1ccccc1CN=[N+]=[N-]

>  <composite z-score>
0.516

$$$$
>  <molecule>
COC(=O)C(CC#Cc1ccc2c(c1)[C@]1(C(=O)N2)[C@H](c2ccc(O)cc2)N2[C@H](c3ccccc3)[C@H](c3ccccc3)OC(=O)[C@H]2[C@@H]1C(N)=O)C(=O)OC

>  <composite z-score>
0.842

$$$$
>  <molecule>
COc1cc2c(cc1OC)CN(C(=O)[C@@H]1[C@H]3C(=O)O[C@H](c4ccccc4)[C@H](c4ccccc4)N3[C@H](c3ccc(O)cc3)[C@@]13C(=O)Nc1ccc(C#CCNC(N)=O)cc13)CC2

>  <composite z-score>
-0.0936

$$$$
>  <molecule>
O=C1C2C=CC(C(O)c3ccccn3)N(Nc3ccccc3)C2C(=O)N1c1ccccc1 (centres undefined)

>  <composite z-score>
-0.0451

$$$$
>  <molecule>
COc1cc(C(O)C2C=CC3C(=O)N(C)C(=O)C3N2NC(=O)OC(C)(C)C)cc(OC)c1OC (centres undefined)

>  <composite z-score>
0.12

$$$$
>  <molecule>
O=C1NC(=O)C2C1C=CC(C(O)c1ccc(-c3ccccc3)s1)N2Nc1ccccn1 (centres undefined)

>  <composite z-score>
0.0403

$$$$
>  <molecule>
[N-]=[N+]=NCc1ccccc1[C@H]1OC(c2ccc(OCCCO)cc2)=N[C@@]1(Cc1ccccc1)C(N)=O

>  <composite z-score>
0.995

$$$$

Any idea what its composite z-score is? The molecule is CC(C)C(CO)N1C(=O)[C@@H]2[C@H]3C(=O)OCC=C[C@H]3OC23C=CCN(CCN2CCOCC2)C(=O)[C@@H]13 (some centres undefined)
-1.32

Any idea what its composite z-score is? The molecule is "O=C1O[C@@H](c2ccccc2)[C@@H](c2ccccc2)N2[C@@H](c3ccc(O)cc3)[C@]3(C(=O)Nc4ccc(C#CC5=CCCCC5)cc43)[C@@H](C(=O)Nc3nc4ccccc4s3)[C@H]12"
-0.18

Any idea what its composite z-score is? The molecule is "CO[C@H]1O[C@H](CO)[C@@H](OC(=O)c2ccc(Br)cc2)[C@@H]2OC(=O)[C@H](Cc3cccc(Br)c3)C/C=C/C[C@@H](Cc3cccc(Br)c3)C(=O)O[C@@H]12"
0.0872

Any idea what its composite z-score is? The molecule is "O=C1O[C@H](c2ccccc2)[C@H](c2ccccc2)N2[C@H]1[C@@H](C(=O)NC[C@H](O)c1ccccc1)[C@]1(C(=O)Nc3ccccc31)[C@H]2c1ccccc1OCCO"
0.376

Any idea what its composite z-score is? The molecule is "CC(C)C[C@@H]1NC(=O)[C@@H]2C[C@H](C(=O)NCc3ccc(F)cc3)[C@H](c3ccc(O)cc3)N2C1=O"
-0.166

Any idea what its composite z-score is? The molecule is "COCCOC(=O)N1C(=O)[C@@]2(c3cc(C#CC4(O)CCCCCC4)ccc31)[C@H](C(=O)N1CCN(c3ncccn3)CC1)[C@H]1C(=O)O[C@H](c3ccccc3)[C@H](c3ccccc3)N1[C@@H]2c1ccc(O)cc1"
1.05

The measured values listed here are drawn from PubChem BioAssay.
